tested on: COR-L 105; test: relative viability (nuclei count vs DMSO), 5 days (fraction); higher = more cells survive; settings: first compound 0.05 µM
measurement kind: relative viability
Could you keep your reply to the number by itself?

QUERY: Lab note: COR-L 105 assay, enter relative viability for COc1cc2nccc(Oc3ccc(NC(=O)Nc4cc(C)on4)c(Cl)c3)c2cc1OC [Tivozanib] + C[C@]1(O)C[C@@H](c2nc(-c3ccc4ccc(-c5ccccc5)nc4c3)c3c(N)nccn32)C1 [Linsitinib] (partner 1 µM) here
RESULT: 1.02

QUERY: Lab note: COR-L 105 assay, enter relative viability for Nc1ccn([C@@H]2O[C@H](CO)[C@@H](O)[C@@H]2O)c(=O)n1 [Cytarabine] + Cc1cc(Nc2cc(N3CCN(C)CC3)nc(Sc3ccc(NC(=O)C4CC4)cc3)n2)n[nH]1 [Tozasertib] (partner 0.1 µM) here
RESULT: 0.306

QUERY: Lab note: COR-L 105 assay, enter relative viability for Nc1ccn([C@@H]2O[C@H](CO)[C@@H](O)[C@@H]2O)c(=O)n1 [Cytarabine] + CS(=O)(=O)N1CCN(Cc2cc3nc(-c4cccc5[nH]ncc45)nc(N4CCOCC4)c3s2)CC1 [Pictilisib] (partner 1 µM) here
RESULT: 0.312

QUERY: Lab note: COR-L 105 assay, enter relative viability for COc1cc2nccc(Oc3ccc(NC(=O)Nc4cc(C)on4)c(Cl)c3)c2cc1OC [Tivozanib] + Cc1cc(Nc2cc(N3CCN(C)CC3)nc(Sc3ccc(NC(=O)C4CC4)cc3)n2)n[nH]1 [Tozasertib] (partner 0.1 µM) here
RESULT: 0.406

###

test system: BEN; assay: relative viability (nuclei count vs DMSO), 5 days (fraction); higher = more cells survive; conditions: first compound 0.5 µM
Binary label based on relative viability with cut-off 0.3: below gives Criterion met, not below gives Criterion not met.

QUERY: Does COc1cc2nccc(Oc3ccc(NC(=O)Nc4cc(C)on4)c(Cl)c3)c2cc1OC [Tivozanib] + CS(=O)(=O)CCNCc1ccc(-c2ccc3ncnc(Nc4ccc(OCc5cccc(F)c5)c(Cl)c4)c3c2)o1 [Lapatinib] (partner 2 µM) have relative viability strictly under 0.3?
RESULT: Criterion not met

QUERY: Does COc1cc2nccc(Oc3ccc(NC(=O)Nc4cc(C)on4)c(Cl)c3)c2cc1OC [Tivozanib] + CC1(C)CCC(c2ccc(Cl)cc2)=C(CN2CCN(c3ccc(C(=O)NS(=O)(=O)c4ccc(N[C@H](CCN5CCOCC5)CSc5ccccc5)c(S(=O)(=O)C(F)(F)F)c4)cc3)CC2)C1 [Navitoclax] (partner 0.5 µM) have relative viability strictly under 0.3?
RESULT: Criterion met

QUERY: Does Nc1ccn([C@@H]2O[C@H](CO)[C@@H](O)[C@@H]2O)c(=O)n1 [Cytarabine] + N=C(N)NC(=N)NCCc1ccccc1 [Phenformin] (partner 250 µM) have relative viability strictly under 0.3?
RESULT: Criterion met

QUERY: Does COc1cc2nccc(Oc3ccc(NC(=O)Nc4cc(C)on4)c(Cl)c3)c2cc1OC [Tivozanib] + Nc1ncn([C@H]2C[C@H](O)[C@@H](CO)O2)c(=O)n1 [Decitabine] (partner 2 µM) have relative viability strictly under 0.3?
RESULT: Criterion not met

###

test system: PC-3 [JPC-3]; test: relative viability (nuclei count vs DMSO), 5 days (fraction); higher = more cells survive; settings: first compound 0.01581 µM
measurement kind: relative viability

QUERY: Indicate the recorded relative viability value for this compound: COc1cc2nccc(Oc3ccc(NC(=O)Nc4cc(C)on4)c(Cl)c3)c2cc1OC [Tivozanib] + CC(=O)Nc1cccc(-n2c(=O)n(C3CC3)c(=O)c3c(Nc4ccc(I)cc4F)n(C)c(=O)c(C)c32)c1 [Trametinib] (partner 0.02 µM)
RESULT: 0.686

QUERY: Indicate the recorded relative viability value for this compound: Nc1ccn([C@@H]2O[C@H](CO)[C@@H](O)[C@@H]2O)c(=O)n1 [Cytarabine] + CCNC(=O)c1noc(-c2cc(C(C)C)c(O)cc2O)c1-c1ccc(CN2CCOCC2)cc1 [Luminespib] (partner 0.01 µM)
RESULT: 0.73

QUERY: Indicate the recorded relative viability value for this compound: COc1cc2nccc(Oc3ccc(NC(=O)Nc4cc(C)on4)c(Cl)c3)c2cc1OC [Tivozanib] + CC(C)C[C@H](NC(=O)[C@H](Cc1ccccc1)NC(=O)c1cnccn1)B(O)O [Bortezomib] (partner 0.002 µM)
RESULT: 0.855

QUERY: Indicate the recorded relative viability value for this compound: Nc1ccn([C@@H]2O[C@H](CO)[C@@H](O)[C@@H]2O)c(=O)n1 [Cytarabine] + CS(=O)(=O)N1CCN(Cc2cc3nc(-c4cccc5[nH]ncc45)nc(N4CCOCC4)c3s2)CC1 [Pictilisib] (partner 1 µM)
RESULT: 0.673

QUERY: Indicate the recorded relative viability value for this compound: COc1cc2nccc(Oc3ccc(NC(=O)Nc4cc(C)on4)c(Cl)c3)c2cc1OC [Tivozanib] + COc1cccc2cc(-c3nc([C@H]4CC[C@H](C(=O)O)CC4)n4ncnc(N)c34)[nH]c12 [OSI-027] (partner 0.5 µM)
RESULT: 0.722

QUERY: Indicate the recorded relative viability value for this compound: Nc1ccn([C@@H]2O[C@H](CO)[C@@H](O)[C@@H]2O)c(=O)n1 [Cytarabine] + CC(=O)c1c(C)c2cnc(Nc3ccc(N4CCNCC4)cn3)nc2n(C2CCCC2)c1=O [Palbociclib] (partner 0.5 µM)
RESULT: 0.479

QUERY: Indicate the recorded relative viability value for this compound: COc1cc2nccc(Oc3ccc(NC(=O)Nc4cc(C)on4)c(Cl)c3)c2cc1OC [Tivozanib] + C[C@]1(O)C[C@@H](c2nc(-c3ccc4ccc(-c5ccccc5)nc4c3)c3c(N)nccn32)C1 [Linsitinib] (partner 1 µM)
RESULT: 0.921

QUERY: Indicate the recorded relative viability value for this compound: COc1cc2nccc(Oc3ccc(NC(=O)Nc4cc(C)on4)c(Cl)c3)c2cc1OC [Tivozanib] + NC(=O)Nc1cc(-c2cccc(F)c2)sc1C(=O)N[C@H]1CCCNC1 [AZD7762] (partner 0.2 µM)
RESULT: 0.857

QUERY: Indicate the recorded relative viability value for this compound: COc1cc2nccc(Oc3ccc(NC(=O)Nc4cc(C)on4)c(Cl)c3)c2cc1OC [Tivozanib] + Nc1nc2[nH]cc(CCc3ccc(C(=O)N[C@@H](CCC(=O)O)C(=O)O)cc3)c2c(=O)[nH]1 [Pemetrexed] (partner 0.2 µM)
RESULT: 1.09

QUERY: Indicate the recorded relative viability value for this compound: COc1cc2nccc(Oc3ccc(NC(=O)Nc4cc(C)on4)c(Cl)c3)c2cc1OC [Tivozanib] + CC(=O)c1c(C)c2cnc(Nc3ccc(N4CCNCC4)cn3)nc2n(C2CCCC2)c1=O [Palbociclib] (partner 0.5 µM)
RESULT: 0.55

QUERY: Indicate the recorded relative viability value for this compound: COc1cc2nccc(Oc3ccc(NC(=O)Nc4cc(C)on4)c(Cl)c3)c2cc1OC [Tivozanib] + CCNC(=O)c1noc(-c2cc(C(C)C)c(O)cc2O)c1-c1ccc(CN2CCOCC2)cc1 [Luminespib] (partner 0.01 µM)
RESULT: 0.636

###

For each of the compounds below, state its relative viability.
tested on: NCI-H2009; experiment: relative viability (nuclei count vs DMSO), 5 days (fraction); higher = more cells survive; conditions: first compound 158.11 µM
Could you keep your reply to the number by itself?

QUERY: Indicate the recorded relative viability value for this compound: O=C(O)CCCCC(CCSCc1ccccc1)SCc1ccccc1 (centres undefined) [CPI-613] + COc1cccc2cc(-c3nc([C@H]4CC[C@H](C(=O)O)CC4)n4ncnc(N)c34)[nH]c12 [OSI-027] (partner 0.5 µM)
RESULT: 0.0782

QUERY: Indicate the recorded relative viability value for this compound: O=C(O)CCCCC(CCSCc1ccccc1)SCc1ccccc1 (centres undefined) [CPI-613] + Cc1nc(NC(=O)N2CCC[C@H]2C(N)=O)sc1-c1ccnc(C(C)(C)C(F)(F)F)c1 [Alpelisib] (partner 2 µM)
RESULT: 0.141

QUERY: Indicate the recorded relative viability value for this compound: O=C(O)CCCCC(CCSCc1ccccc1)SCc1ccccc1 (centres undefined) [CPI-613] + CS(=O)(=O)N1CCN(Cc2cc3nc(-c4cccc5[nH]ncc45)nc(N4CCOCC4)c3s2)CC1 [Pictilisib] (partner 1 µM)
RESULT: 0.0928

QUERY: Indicate the recorded relative viability value for this compound: O=C(O)CCCCC(CCSCc1ccccc1)SCc1ccccc1 (centres undefined) [CPI-613] + Cc1nc(Nc2ncc(C(=O)Nc3c(C)cccc3Cl)s2)cc(N2CCN(CCO)CC2)n1 [Dasatinib] (partner 0.075 µM)
RESULT: 0.0869

###

tested on: NCI-H727; experiment: relative viability (nuclei count vs DMSO), 5 days (fraction); higher = more cells survive; details: first compound 2.53 µM
For each of the compounds below, state its relative viability.
Could you keep your reply to the number by itself?

QUERY: Indicate the recorded relative viability value for this compound: O=c1[nH]c2ccccc2n1C1CCN(CCCC(c2ccc(F)cc2)c2ccc(F)cc2)CC1 [Pimozide] + Cc1nc(Nc2ncc(C(=O)Nc3c(C)cccc3Cl)s2)cc(N2CCN(CCO)CC2)n1 [Dasatinib] (partner 0.075 µM)
RESULT: 0.358

QUERY: Indicate the recorded relative viability value for this compound: O=c1[nH]c2ccccc2n1C1CCN(CCCC(c2ccc(F)cc2)c2ccc(F)cc2)CC1 [Pimozide] + Cc1cc(Nc2cc(N3CCN(C)CC3)nc(Sc3ccc(NC(=O)C4CC4)cc3)n2)n[nH]1 [Tozasertib] (partner 0.1 µM)
RESULT: 0.65

QUERY: Indicate the recorded relative viability value for this compound: O=c1[nH]c2ccccc2n1C1CCN(CCCC(c2ccc(F)cc2)c2ccc(F)cc2)CC1 [Pimozide] + NC(=O)Nc1cc(-c2cccc(F)c2)sc1C(=O)N[C@H]1CCCNC1 [AZD7762] (partner 0.2 µM)
RESULT: 0.613

QUERY: Indicate the recorded relative viability value for this compound: O=c1[nH]c2ccccc2n1C1CCN(CCCC(c2ccc(F)cc2)c2ccc(F)cc2)CC1 [Pimozide] + COc1cc2c(Oc3ccc(NC(=O)C4(C(=O)Nc5ccc(F)cc5)CC4)cc3F)ccnc2cc1OCCCN1CCOCC1 [Foretinib] (partner 0.25 µM)
RESULT: 0.722
